Data origin, for the record: patent US10406146B2

system name: HDAC6 enzyme (Homo sapiens)
Construct: transducing full length HDAC1 and HDAC6 genes into Sf-9 insect cells; GST; purchased SignalChem; host or cells: Sf-9 insect cells
test: HDAC6 enzyme inhibitory assay (HDAC-Glo I/II Assay kit)
Assay type: biochemical
run parameters: wells without enzyme = 100% inhibition, read-out: HDAC6 inhibitory rate (%) (1 μM)
property name: inhibition at 1 µM (%)

(a) Cc1ccc(C(=O)NCC2CCCCN2C(=O)Nc2ccc(-c3noc(C(F)(F)F)n3)cc2)cc1 (centres unmarked) [Example 12]
(b) Cn1nc(C(=O)NCC2CCCCN2C(=O)Nc2ccc(-c3noc(C(F)(F)F)n3)cc2)cc1C(F)(F)F (centres unmarked) [Example 59]
(c) O=C(NCC1CCCCN1C(=O)Nc1ccc(-c2noc(C(F)(F)F)n2)cc1)c1cc[n+]([O-])cc1 (centres unmarked) [Example 37]
(d) O=C(NCC1CCCCN1C(=O)Nc1ccc(-c2noc(C(F)(F)F)n2)cc1)c1ccc(Cl)c(Cl)c1 (centres unmarked) [Example 32]
Exam item: list the entries in increasing order of inhibition at 1 µM. Output spec: a listing of the labels in the requested order.
d, b, c, a
(d: 0%, b: 1%, c: 2%, a: 5%)

----------
system name: HDAC6 enzyme (Homo sapiens, UniProt Q9UBN7)
Construct: transducing full length HDAC1 and HDAC6 genes into Sf-9 insect cells; GST; purchased SignalChem; host or cells: Sf-9 insect cells
Sequence (Q9UBN7 whole entry): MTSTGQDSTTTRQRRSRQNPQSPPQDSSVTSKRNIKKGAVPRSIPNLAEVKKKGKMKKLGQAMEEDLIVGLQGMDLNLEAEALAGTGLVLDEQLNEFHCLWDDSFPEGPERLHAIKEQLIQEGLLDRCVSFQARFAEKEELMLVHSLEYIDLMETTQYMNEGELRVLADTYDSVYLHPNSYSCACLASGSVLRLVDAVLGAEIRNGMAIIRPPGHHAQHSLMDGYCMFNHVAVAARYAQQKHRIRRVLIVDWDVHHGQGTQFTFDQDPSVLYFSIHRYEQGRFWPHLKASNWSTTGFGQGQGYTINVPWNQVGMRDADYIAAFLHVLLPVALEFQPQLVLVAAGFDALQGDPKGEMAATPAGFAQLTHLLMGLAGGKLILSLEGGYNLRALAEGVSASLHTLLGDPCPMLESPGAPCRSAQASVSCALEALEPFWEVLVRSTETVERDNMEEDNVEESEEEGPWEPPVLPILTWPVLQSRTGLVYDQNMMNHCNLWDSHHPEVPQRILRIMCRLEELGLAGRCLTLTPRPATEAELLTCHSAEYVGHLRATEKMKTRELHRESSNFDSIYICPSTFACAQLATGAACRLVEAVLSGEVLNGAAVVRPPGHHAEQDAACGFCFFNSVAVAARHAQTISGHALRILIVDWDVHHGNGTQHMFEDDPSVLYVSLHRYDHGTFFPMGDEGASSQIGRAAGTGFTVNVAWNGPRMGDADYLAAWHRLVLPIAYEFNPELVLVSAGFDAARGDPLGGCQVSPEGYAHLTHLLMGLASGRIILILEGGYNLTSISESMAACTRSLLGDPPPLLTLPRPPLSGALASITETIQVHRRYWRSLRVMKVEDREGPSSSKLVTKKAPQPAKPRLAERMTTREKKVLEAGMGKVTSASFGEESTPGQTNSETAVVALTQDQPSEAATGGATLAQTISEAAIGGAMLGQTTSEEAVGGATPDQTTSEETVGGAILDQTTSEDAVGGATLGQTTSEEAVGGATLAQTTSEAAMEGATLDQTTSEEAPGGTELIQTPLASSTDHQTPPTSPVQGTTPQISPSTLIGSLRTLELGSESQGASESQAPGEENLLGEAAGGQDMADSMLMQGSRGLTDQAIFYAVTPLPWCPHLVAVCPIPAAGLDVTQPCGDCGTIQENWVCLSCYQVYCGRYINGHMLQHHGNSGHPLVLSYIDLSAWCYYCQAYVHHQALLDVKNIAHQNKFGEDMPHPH
test: HDAC6 enzyme inhibitory assay (HDAC-Glo I/II Assay kit)
Assay type: biochemical
run parameters: wells without enzyme = 100% inhibition, read-out: HDAC6 inhibitory rate (%) (1 μM)
property name: inhibition at 1 µM (%)

Use the examples below as a reference point.
compound="Cn1nccc1C(=O)NCC1COCCN1C(=O)Nc1ccc(-c2noc(C(F)(F)F)n2)cc1 (stereo not shown) [Example 61]" system_name="HDAC6 enzyme (Homo sapiens, UniProt Q9UBN7)" unit_abbreviation=% numeric_value=8
compound="Cn1nccc1C(=O)NC[C@@H]1COCCN1C(=O)Nc1ccc(-c2noc(C(F)(F)F)n2)cc1 [Example 63]" system_name="HDAC6 enzyme (Homo sapiens, UniProt Q9UBN7)" unit_abbreviation=% numeric_value=11

(1) N#Cc1ccc(C(=O)NCC2CCCCN2C(=O)Nc2ccc(-c3noc(C(F)(F)F)n3)cc2)cc1 (stereo not shown) [Example 21]
(2) O=C(NCC1CCCCN1C(=O)Nc1ccc(-c2noc(C(F)(F)F)n2)cc1)c1ccc(F)cc1 (stereo not shown) [Example 6]
Between 1 and 2 , which one shows the smaller inhibition at 1 µM number? Select an item and report its label.
1
(1: 0%, 2: 5%)

----------
system name: HDAC9 enzyme (Homo sapiens)
Construct: transducing full length HDAC9 gene into Sf-9 insect cells; made in house; host or cells: Sf-9 insect cells
Sequence (Q9UKV0 whole entry, species assumed): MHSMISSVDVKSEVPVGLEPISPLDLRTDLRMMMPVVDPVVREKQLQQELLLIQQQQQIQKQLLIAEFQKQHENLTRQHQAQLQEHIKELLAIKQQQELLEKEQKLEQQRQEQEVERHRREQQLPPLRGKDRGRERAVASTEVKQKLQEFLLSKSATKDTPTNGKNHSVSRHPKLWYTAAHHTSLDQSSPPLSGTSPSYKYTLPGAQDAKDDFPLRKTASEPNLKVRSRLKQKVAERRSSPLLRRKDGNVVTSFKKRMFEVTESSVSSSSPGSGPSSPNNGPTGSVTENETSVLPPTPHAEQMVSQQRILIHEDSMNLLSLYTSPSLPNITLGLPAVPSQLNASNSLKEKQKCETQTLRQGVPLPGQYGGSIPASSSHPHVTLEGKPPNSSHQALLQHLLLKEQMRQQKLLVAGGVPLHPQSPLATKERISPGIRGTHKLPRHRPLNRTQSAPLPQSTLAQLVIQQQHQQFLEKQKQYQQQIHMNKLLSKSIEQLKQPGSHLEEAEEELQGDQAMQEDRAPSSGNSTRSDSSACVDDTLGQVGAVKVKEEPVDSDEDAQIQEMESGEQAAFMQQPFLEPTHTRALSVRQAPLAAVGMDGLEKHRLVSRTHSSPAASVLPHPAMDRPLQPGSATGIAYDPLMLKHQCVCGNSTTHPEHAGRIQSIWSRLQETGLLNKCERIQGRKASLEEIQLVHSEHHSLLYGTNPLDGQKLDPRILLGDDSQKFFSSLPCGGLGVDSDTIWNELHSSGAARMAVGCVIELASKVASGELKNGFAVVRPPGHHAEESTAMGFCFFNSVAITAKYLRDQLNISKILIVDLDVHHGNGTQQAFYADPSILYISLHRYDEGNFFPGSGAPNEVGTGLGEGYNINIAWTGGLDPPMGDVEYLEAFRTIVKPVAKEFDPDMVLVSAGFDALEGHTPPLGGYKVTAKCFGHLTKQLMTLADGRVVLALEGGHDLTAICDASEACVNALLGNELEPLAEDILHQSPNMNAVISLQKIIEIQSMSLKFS
test: HDAC9 enzyme inhibitory assay (HDAC-Glo class IIa)
Type: biochemical
run parameters: wells without enzyme = 100% inhibition, read-out: HDAC9 inhibitory rate (%) (1 μM)
property name: inhibition at 1 µM (%)

Please review the entries below; each comes with its answer.
compound="O=C(NCC1COCCN1C(=O)Nc1ccc(-c2noc(C(F)(F)F)n2)cc1)c1ccccc1 (stereo not drawn)" numeric_value=98
compound=Cn1nccc1C(=O)NC[C@H]1COCCN1C(=O)Nc1ccc(-c2noc(C(F)(F)F)n2)cc1 numeric_value=92
compound="O=C(NCC1CCCCN1C(=O)Nc1ccc(-c2noc(C(F)(F)F)n2)cc1)c1ccccn1 (stereo not drawn)" numeric_value=84
compound="O=C(NCC1CCCCN1C(=O)Nc1ccc(-c2noc(C(F)(F)F)n2)cc1)c1ccc(F)cc1 (stereo not drawn)" numeric_value=94
compound="N#Cc1cccc(C(=O)NCC2CCCCN2C(=O)Nc2ccc(-c3noc(C(F)(F)F)n3)cc2)c1 (stereo not drawn)" numeric_value=95

(I) Cc1cc(C(=O)NCC2CCCCN2C(=O)Nc2ccc(-c3noc(C(F)(F)F)n3)cc2)ccn1 (stereo not drawn)
(II) O=C(NCC1CCCCN1C(=O)Nc1ccc(-c2noc(C(F)(F)F)n2)cc1)c1cccc(-c2ccccc2)c1 (stereo not drawn)
Record comparison, field inhibition at 1 µM: mark the lower of I and II . When you have decided, please share the label of that item.
II
